# Target Desc: human orexin 1 receptor (hOx1R) (Homo sapiens, UniProt O43613)
# Construct: expressed in transfected cells
# Sequence (O43613 1-425): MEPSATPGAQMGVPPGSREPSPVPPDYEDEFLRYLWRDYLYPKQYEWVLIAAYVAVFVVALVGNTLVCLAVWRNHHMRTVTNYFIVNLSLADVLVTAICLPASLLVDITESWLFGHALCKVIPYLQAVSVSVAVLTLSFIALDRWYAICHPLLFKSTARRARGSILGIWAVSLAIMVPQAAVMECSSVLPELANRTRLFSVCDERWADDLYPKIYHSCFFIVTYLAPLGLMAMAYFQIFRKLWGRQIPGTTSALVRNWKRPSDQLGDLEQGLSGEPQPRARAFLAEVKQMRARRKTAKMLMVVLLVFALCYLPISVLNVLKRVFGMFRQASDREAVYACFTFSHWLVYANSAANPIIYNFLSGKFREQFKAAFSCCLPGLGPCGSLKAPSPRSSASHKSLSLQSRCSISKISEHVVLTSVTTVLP
# Test Protocol: Radioligand binding assay ([125I]orexin A competition), hOx1R
# Measurement Conditions: CHO or HEK cell membranes, 1 h room temperature
Assay Readout: Kd

- CN(C(=O)c1cc(C(F)(F)F)cc(C(F)(F)F)c1)C(CCNC(=O)c1ccccc1)Cc1ccccc1 (centres unmarked) [Example 17]: 8790 nM
- CN(C(=O)c1cccc2c1ccn2C)[C@H](CCNC(=O)c1ccccn1)Cc1ccccc1 [Example 40]: 125 nM
- COc1ccc(C(=O)N(C)[C@H](CCNC(=O)c2ccccn2)Cc2ccccc2)cc1OC [Example 9]: 474 nM
- Cc1cccc(C(=O)N(C)[C@H](CCNC(=O)c2cccn2C)Cc2ccccc2)c1 [Example 119]: 249 nM
- Cc1nc(C(=O)NCC[C@H](Cc2ccccc2)N(C)C(=O)c2ccc3c(c2)OCO3)c(-c2ccccc2F)s1 [Example 83]: 54 nM
